These measurements were taken from paper PMC10114720.

assay: PDMS sheets cleaned by Soxhlet with ethyl acetate; batch shaking method with a mixture of all chemicals at several PDMS-mass to water-volume ratios and spiked levels; vials shaken on an orbital shaker at room temperature in the dark, sampled at two equilibration times; PDMS extracts and water quantified by LC-HRMS (Orbitrap); D from the slope of C_PDMS on C_w or their ratio; value is the mean over that pH's experiments (individual experiments in the SI's concentrations table), sd is the table's stdev; conditions: PDMS (polydimethylsiloxane silicone sheet); phosphate buffer at three target pH values (the paper's methods); pH 3
measured-quantity: log D PDMS/w (apparent distribution ratio at the stated pH)

> print(dat)
                                    compound                          reported.value
 1                       CCOC(=O)c1ccc(N)cc1   0.4988 log units; D and K as the pape
 2            NC(=O)/N=C1\SCCN1Cc1ccc(Cl)nc1   0.2411 log units; D and K as the pape
 3                  CC(C)(C)Nc1nc(N)nc(Cl)n1    1.314 log units; D and K as the pape
 4  O=C1Nc2ccc(Cl)cc2C(C#CC2CC2)(C(F)(F)F)O1 (stereo not drawn)    2.835 log units; D and K as the pape
 5                   c1ccc2sc(N3CCOCC3)nc2c1    1.704 log units; D and K as the pape
 6                      c1ccc2nc3ccccc3cc2c1    0.945 log units; D and K as the pape
 7       CN(C)c1ccc(C(=O)c2ccc(N(C)C)cc2)cc1    2.372 log units; D and K as the pape
 8             CSc1nc(NC2CC2)nc(NC(C)(C)C)n1    2.006 log units; D and K as the pape
 9    CNC(=O)/C(=N/OC)c1ccccc1COc1cc(C)ccc1C    2.432 log units; D and K as the pape
10                     CC(C)Nc1nc(N)nc(Cl)n1    0.418 log units; D and K as the pape
11  c1ccc(-c2ccc(C(c3ccccc3)n3ccnc3)cc2)cc1 (stereo not drawn)    2.122 log units; D and K as the pape
12                  c1ccc2c(c1)[nH]c1ccncc12   -0.445 log units; D and K as the pape
13                         Cc1ccc2[nH]nnc2c1    0.336 log units; D and K as the pape
14                          c1ccc2[nH]nnc2c1    0.055 log units; D and K as the pape
15  CC(C)(C)NC(=O)[C@H]1CC[C@H]2[C@@H]3CC[C@H]4NC(=O)C=C[C@]4(C)[C@H]3CC[C@]12C     2.64 log units; D and K as the pape
16      CCCN(CCOc1c(Cl)cc(Cl)cc1Cl)C(=O)NC=O    2.492 log units; D and K as the pape
17          CCOC(=O)CC(O)(CC(=O)OCC)C(=O)OCC    1.101 log units; D and K as the pape
18  CO/C=C(/C(=O)O)c1ccccc1Oc1cc(Oc2ccccc2C#N)ncn1    1.162 log units; D and K as the pape
19           O=P(c1ccccc1)(c1ccccc1)c1ccccc1    2.588 log units; D and K as the pape
20  N#Cc1nn(-c2c(Cl)cc(C(F)(F)F)cc2Cl)c(N)c1S(=O)(=O)C(F)(F)F    2.417 log units; D and K as the pape
21  Cc1nccn1CC1CCc2c(c3ccccc3n2C)C1=O (stereo not drawn)    -0.92 log units; D and K as the pape
22  NC(=O)N1c2ccccc2C(O)C(O)c2ccccc21 (stereo not drawn)    -0.08 log units; D and K as the pape
23                        O=C1CC2(CCCCC2)CN1    1.311 log units; D and K as the pape
24                  c1ccc2c(c1)[nH]c1cnccc12    1.471 log units; D and K as the pape
25                 O=c1c2ccccc2[nH]c2ccccc12    1.351 log units; D and K as the pape
26                 CCCCCCCCCCCC(=O)N(CCO)CCO    2.742 log units; D and K as the pape
27         O=S(=O)(c1ccc(Cl)cc1)c1ccc(Cl)cc1    2.579 log units; D and K as the pape
28                c1ccc2[nH]c(-c3cscn3)nc2c1   0.5417 log units; D and K as the pape
29                       N#CSCSc1nc2ccccc2s1    1.914 log units; D and K as the pape
30  COCCc1ccc(OCC(O)CNC(C)C)cc1 (stereo not drawn)     0.28 log units; D and K as the pape
31             Cc1c(C=O)c(=O)n(-c2ccccc2)n1C  -0.2614 log units; D and K as the pape
32                        CCNc1nc(N)nc(Cl)n1     0.21 log units; D and K as the pape
33           Cc1c(C(C)C)c(=O)n(-c2ccccc2)n1C    1.579 log units; D and K as the pape
34                    Cc1cc(=O)oc2cc(N)ccc12   0.7917 log units; D and K as the pape
35  CCc1ccc(CCOc2ccc(CC3SC(=O)NC3=O)cc2)nc1 (stereo not drawn)   0.7792 log units; D and K as the pape
36              CC(C)(C)c1ccc(S(N)(=O)=O)cc1     1.11 log units; D and K as the pape
